tested.target: Huntingtin (Homo sapiens) (UniProt P42858)
Sequence (P42858 whole entry, looked up, stated change not applied): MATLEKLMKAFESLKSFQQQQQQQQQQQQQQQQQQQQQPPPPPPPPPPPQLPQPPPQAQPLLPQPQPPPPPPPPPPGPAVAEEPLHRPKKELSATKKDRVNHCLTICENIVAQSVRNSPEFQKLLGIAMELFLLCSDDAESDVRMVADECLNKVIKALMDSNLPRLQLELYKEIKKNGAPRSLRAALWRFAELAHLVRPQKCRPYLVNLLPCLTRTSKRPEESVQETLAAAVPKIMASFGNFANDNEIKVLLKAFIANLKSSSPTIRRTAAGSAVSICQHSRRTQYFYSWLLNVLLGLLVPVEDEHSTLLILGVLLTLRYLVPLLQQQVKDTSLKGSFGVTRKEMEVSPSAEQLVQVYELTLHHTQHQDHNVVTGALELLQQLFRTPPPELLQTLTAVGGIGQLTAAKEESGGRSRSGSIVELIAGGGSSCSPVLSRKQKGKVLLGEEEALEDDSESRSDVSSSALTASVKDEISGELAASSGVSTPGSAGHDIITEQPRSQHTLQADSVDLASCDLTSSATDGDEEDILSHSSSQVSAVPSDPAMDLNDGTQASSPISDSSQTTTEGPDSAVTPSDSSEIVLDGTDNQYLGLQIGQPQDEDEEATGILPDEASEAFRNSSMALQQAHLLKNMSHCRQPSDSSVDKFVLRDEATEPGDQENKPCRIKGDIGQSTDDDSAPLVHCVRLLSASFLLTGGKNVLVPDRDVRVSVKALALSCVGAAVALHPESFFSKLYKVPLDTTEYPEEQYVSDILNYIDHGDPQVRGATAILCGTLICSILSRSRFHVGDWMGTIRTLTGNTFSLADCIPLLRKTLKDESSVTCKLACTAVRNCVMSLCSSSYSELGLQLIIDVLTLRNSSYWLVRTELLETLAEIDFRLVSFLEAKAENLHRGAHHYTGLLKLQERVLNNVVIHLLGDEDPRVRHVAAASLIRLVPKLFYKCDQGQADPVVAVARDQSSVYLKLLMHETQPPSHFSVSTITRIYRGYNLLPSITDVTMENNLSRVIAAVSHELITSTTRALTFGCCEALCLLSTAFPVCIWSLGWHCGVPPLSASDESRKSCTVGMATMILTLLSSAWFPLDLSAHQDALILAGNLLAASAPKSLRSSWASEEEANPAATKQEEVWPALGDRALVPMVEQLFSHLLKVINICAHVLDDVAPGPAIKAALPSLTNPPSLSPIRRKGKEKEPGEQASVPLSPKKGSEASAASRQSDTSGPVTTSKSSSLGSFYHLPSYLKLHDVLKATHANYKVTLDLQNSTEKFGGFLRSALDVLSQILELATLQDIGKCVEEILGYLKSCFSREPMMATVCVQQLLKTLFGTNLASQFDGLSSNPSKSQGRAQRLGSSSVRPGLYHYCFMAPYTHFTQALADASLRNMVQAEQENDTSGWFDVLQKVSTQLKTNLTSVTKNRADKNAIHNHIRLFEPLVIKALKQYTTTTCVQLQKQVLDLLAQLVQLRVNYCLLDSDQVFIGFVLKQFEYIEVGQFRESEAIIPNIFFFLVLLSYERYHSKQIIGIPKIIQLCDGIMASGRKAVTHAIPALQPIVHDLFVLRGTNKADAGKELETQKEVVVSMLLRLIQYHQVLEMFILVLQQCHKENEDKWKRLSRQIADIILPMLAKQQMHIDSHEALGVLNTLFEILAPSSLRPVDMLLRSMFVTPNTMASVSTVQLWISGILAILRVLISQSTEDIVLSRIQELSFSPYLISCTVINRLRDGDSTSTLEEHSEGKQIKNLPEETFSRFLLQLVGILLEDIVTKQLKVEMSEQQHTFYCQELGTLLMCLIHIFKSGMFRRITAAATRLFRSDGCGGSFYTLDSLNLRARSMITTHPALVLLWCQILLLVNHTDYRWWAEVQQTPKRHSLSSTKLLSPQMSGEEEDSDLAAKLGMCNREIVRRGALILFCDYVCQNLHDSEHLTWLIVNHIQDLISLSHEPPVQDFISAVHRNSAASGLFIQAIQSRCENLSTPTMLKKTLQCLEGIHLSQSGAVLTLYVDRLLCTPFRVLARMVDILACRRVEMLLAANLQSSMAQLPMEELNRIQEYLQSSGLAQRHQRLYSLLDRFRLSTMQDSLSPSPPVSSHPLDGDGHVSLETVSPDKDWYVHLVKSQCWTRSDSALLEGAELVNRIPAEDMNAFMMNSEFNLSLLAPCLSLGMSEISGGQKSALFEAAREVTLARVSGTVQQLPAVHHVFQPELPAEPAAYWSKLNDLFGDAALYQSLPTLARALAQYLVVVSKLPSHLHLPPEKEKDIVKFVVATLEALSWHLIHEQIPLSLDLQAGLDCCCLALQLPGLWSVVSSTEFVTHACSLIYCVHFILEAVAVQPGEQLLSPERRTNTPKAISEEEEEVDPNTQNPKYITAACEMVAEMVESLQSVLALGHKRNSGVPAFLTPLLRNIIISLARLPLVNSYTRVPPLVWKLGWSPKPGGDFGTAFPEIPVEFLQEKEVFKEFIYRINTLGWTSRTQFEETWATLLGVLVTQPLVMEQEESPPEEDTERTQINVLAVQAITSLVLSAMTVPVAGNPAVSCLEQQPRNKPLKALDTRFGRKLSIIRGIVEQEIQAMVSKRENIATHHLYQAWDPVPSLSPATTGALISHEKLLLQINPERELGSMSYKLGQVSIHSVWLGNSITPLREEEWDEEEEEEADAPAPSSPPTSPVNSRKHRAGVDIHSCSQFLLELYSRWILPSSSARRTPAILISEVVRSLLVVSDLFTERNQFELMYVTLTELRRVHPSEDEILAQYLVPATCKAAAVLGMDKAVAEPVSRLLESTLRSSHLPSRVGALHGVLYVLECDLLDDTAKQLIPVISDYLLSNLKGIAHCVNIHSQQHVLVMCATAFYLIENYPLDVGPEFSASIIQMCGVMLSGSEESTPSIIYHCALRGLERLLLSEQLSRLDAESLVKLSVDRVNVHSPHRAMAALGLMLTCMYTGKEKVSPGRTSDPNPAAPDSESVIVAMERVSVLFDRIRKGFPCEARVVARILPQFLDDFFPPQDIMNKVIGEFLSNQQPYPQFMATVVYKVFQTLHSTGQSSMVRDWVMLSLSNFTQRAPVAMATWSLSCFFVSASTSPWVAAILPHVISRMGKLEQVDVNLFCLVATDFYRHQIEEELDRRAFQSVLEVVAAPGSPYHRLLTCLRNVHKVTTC
assay.overview: mutant huntingtin-calmodulin interaction inhibitors – biochemical, AlphaScreen, primary screen (AID 1671202);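 also: 0% = both proteins with DMSO and 100% = one protein alone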
setup.conditions: AlphaScreen His-mHTT/GST-CaM binding, luminescence; at 15 µM, active compounds read high
In all, about 190,000 compounds went through this assay and about 6,900 (3.6%) were called active. For the sample, actives were picked, then their nearest neighbours and some compounds at random.
measurement.type: inhibition (%)
Write the value in % as a bare number.

Qu. Form field: reported inhibition of O=C(NCc1cccnc1)c1cnn2c1NC(c1cccs1)CC2C(F)(F)F (configuration not stated)
Ans. 4.91

Qu. Further, for `O=C1c2ccccc2C(=O)c2c1ccc(Cl)c2NC(=O)C(F)(F)F` ?
Ans. 18

Qu. Further, for Cc1ccc2c(c1)CCN1C(=O)CN(S(=O)(=O)c3cccc(Cl)c3C)CC21 (configuration not stated) ?
Ans. 61.2

Qu. Further, for `O=C(C1c2ccccc2Oc2ccccc21)N1CCN(c2ccc([N+](=O)[O-])cc2)CC1` ?
Ans. -2.2

Qu. Further, for `CCN1CCN(c2ncc3c(n2)CCN(Cc2ccccc2Cl)C3)CC1` ?
Ans. 39

Qu. Further, for `COc1ccc(-c2ncc3c(n2)CCN(C(=O)c2cccc(OC)c2)C3)cc1` ?
Ans. 11.1

Qu. Further, for `CCOc1ccc(-n2nc(C(=O)Nc3ccc(F)cc3)c3ccccc3c2=O)cc1` ?
Ans. -5

Qu. Further, for `Cc1cc(SCC(=O)NCc2ccc3c(c2)OCO3)nc2ccccc12` ?
Ans. -10.7

Qu. Further, for Cc1ccc2occ(C3Nc4cc(C)c(C)cc4NC4=C3C(=O)CC(C)(C)C4)c(=O)c2c1 (configuration not stated) ?
Ans. 19

====

// reported inhibition per item
tested.target: Huntingtin (Homo sapiens) (UniProt P42858)
assay.overview: mutant huntingtin-calmodulin interaction inhibitors – biochemical, AlphaScreen, primary screen (AID 1671202);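 also: 0% = both proteins with DMSO and 100% = one protein alone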
setup.conditions: AlphaScreen His-mHTT/GST-CaM binding, luminescence; at 15 µM, active compounds read high
Screen size: about 190,000 compounds; about 6,900 (3.6%) were called active. What follows is part of a selection rich in actives, with near analogues and random picks from the rest.
Write the value in % as a bare number.

Study these solved cases before continuing.
COc1cc(OC)c(OC)cc1C=Nc1ccccc1C(=O)O	5.4
Cc1ccc(-c2ccc(CN3C(C(C)C)C(=O)N(Cc4cn(CCC5OCCO5)nn4)CCS3(=O)=O)cc2)cc1 (centres undefined)	14.9
O=C(CC1COc2ccccc2NC1=O)Nc1ccc(C(F)(F)F)cc1 (centres undefined)	-6.9

Please look at the following compound next.
Qu. Form field: reported inhibition of `O=C(Nc1ccc(F)cc1)c1cc(S(=O)(=O)NCCc2ccc(Cl)cc2)ccc1F`
Ans. 61

====

tested.target: Huntingtin (Homo sapiens)
assay.overview: mutant huntingtin-calmodulin interaction inhibitors – biochemical, AlphaScreen, primary screen (AID 1671202);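 also: 0% = both proteins with DMSO and 100% = one protein alone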
setup.conditions: AlphaScreen His-mHTT/GST-CaM binding, luminescence; at 15 µM, active compounds read high
Among all 190,000 compounds or so, about 6,900 (3.6%) were called active. Only a selection was taken, and actives are over-represented in it overall.
measurement.type: inhibition (%)
Write the value in % as a bare number.

Qu. Test system Huntingtin (Homo sapiens); read-out inhibition; what value for `COc1ccc(C(=O)Nc2nc3ccccc3s2)cc1Br` ?
Ans. -8

Qu. Further, for `COCCNC(=O)Nc1nc(-c2ccccn2)cs1` ?
Ans. 95.6

Qu. Further, for `c1csc(CN2CCN(c3cnn4cnnc4c3)CC2)c1` ?
Ans. 0.4
